# System: Ishikawa human endometrial tumor cells
# method.summary: Ishikawa Alkaline Phosphatase Assay
# Format: cell-based
# experimental.parameters: Homo sapiens, Ishikawa; agonist mode
measured.attribute: EC50 (nM)

Look over these answered cases.
O=C(c1ccc(OCCN2CCCCC2)cc1)N1c2ccc(O)cc2CCC1c1ccccc1 (stereo not drawn) | 84.8
Oc1ccc(C2CCc3cc(O)ccc3N2Cc2ccc(OCCN3CCCCC3)cc2)cc1 (stereo not drawn) | 219
COc1ccc(C2CCc3cc(OC)ccc3N2C(=O)c2ccc(OCCN3CCCCC3)cc2)cc1 (stereo not drawn) | 22.9

1 = Oc1ccc2c(c1)CCC(c1ccccc1)N2Cc1ccc(OCCN2CCCCC2)cc1 (stereo not drawn)
2 = O=C(c1ccc(OCCN2CCCCC2)cc1)N1c2ccc(O)cc2CCC1c1ccc(O)cc1 (stereo not drawn)
3 = Oc1cccc(C2CCc3cc(O)ccc3N2Cc2ccc(OCCN3CCCCC3)cc2)c1 (stereo not drawn)
Put the entries in order of EC50, starting with the largest number. // respond by listing labels in the order requested 2, 3, 1
(2: 239 nM, 3: 142 nM, 1: 28.4 nM)

* * *

Target sequence: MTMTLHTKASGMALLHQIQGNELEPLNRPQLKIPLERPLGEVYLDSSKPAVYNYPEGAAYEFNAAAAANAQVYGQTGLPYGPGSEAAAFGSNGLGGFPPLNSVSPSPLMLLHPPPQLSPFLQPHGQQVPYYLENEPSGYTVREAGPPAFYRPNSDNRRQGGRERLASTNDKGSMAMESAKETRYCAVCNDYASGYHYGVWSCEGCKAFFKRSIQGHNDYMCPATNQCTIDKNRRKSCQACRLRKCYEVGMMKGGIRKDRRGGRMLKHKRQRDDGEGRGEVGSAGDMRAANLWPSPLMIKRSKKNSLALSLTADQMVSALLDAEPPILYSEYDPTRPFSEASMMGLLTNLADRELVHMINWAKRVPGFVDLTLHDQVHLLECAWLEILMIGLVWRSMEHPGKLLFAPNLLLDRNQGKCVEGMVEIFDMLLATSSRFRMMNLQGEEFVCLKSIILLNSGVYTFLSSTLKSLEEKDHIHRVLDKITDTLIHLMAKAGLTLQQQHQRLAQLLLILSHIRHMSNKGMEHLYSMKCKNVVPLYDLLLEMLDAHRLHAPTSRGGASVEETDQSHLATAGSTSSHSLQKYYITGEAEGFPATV
measured.attribute: Ki (nM)

a = O=C(c1ccc(OCCN2CCCCC2)cc1)N1c2ccc(O)cc2CCC1c1ccccc1 (centres unmarked) [Example 4]
b = Oc1ccc(C2CCc3cc(O)ccc3N2Cc2ccc(OCCN3CCCCC3)cc2)cc1 (centres unmarked) [Example 7]
Between the entries labelled a and b , which has a larger Ki value on record? Let me know the label of the one you choose. a

* * *

# Tested on: Ishikawa human endometrial tumor cells
# method.summary: Ishikawa Alkaline Phosphatase Assay
# Assay type: cell-based
# experimental.parameters: Homo sapiens, Ishikawa; antagonist mode, with E2 (1 nM)
measured.attribute: IC50 (µM)

Oc1ccc2c(c1)CCC(c1ccccc1)N2Cc1ccc(OCCN2CCCCC2)cc1 (stereo not drawn) | 0.716
O=C(c1ccc(OCCN2CCCCC2)cc1)N1c2ccc(O)cc2CCC1c1ccccc1 (stereo not drawn) | 0.667
Oc1cccc(C2CCc3cc(O)ccc3N2Cc2ccc(OCCN3CCCCC3)cc2)c1 (stereo not drawn) | 0.892
